Molecular target: Sodium-dependent dopamine transporter (Homo sapiens)
Sequence (Q01959 whole entry): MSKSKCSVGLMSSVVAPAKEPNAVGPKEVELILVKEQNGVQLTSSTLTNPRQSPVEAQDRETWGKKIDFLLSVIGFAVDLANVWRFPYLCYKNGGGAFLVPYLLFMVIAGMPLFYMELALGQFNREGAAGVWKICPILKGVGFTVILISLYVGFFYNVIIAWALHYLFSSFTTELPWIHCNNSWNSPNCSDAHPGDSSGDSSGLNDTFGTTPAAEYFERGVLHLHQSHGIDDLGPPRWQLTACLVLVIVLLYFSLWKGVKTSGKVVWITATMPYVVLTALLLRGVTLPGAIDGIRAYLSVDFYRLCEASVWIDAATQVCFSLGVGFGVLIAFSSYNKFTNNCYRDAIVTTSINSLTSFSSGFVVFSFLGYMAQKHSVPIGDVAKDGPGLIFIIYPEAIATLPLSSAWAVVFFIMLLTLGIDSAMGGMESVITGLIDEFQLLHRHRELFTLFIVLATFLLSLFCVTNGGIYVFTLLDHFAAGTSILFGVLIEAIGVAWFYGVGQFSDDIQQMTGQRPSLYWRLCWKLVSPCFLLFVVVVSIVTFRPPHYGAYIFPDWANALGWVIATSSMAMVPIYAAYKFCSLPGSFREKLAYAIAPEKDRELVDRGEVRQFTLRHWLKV
Assay: GPCRScan assay: inhibition of DAT
Set-up: radioligand conc. used [nm] 3.6 – 16.0, parental cells stable HEK
Details: read-out: Ki
Measured endpoint: Ki (µM)
Provide the reading as a plain figure in µM.

Returns the measured Ki for the input compound. Input: Cn1cc2c(-c3c(-c4ccc(F)cn4)nn4c3COC(C)(C)C4)ccnc2n1
7.22

###

Target: Mitogen-activated protein kinase 11 (Homo sapiens, UniProt Q15759)
Sequence (Q15759 whole entry): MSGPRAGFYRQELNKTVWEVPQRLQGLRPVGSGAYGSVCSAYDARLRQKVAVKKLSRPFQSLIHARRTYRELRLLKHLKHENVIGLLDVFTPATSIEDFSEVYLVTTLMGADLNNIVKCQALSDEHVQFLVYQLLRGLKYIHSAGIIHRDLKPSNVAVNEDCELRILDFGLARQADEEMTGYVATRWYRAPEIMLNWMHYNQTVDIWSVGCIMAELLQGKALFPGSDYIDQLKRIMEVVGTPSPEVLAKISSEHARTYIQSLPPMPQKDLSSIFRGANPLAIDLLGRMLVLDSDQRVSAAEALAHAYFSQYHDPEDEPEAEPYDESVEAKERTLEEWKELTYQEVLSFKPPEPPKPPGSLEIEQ
Assay: SAPK2b(h) Kinase panel
pIC50: −log10 of the molar value.
Measured endpoint: pIC50

Which pIC50 reading was recorded for the compound [2H]C([2H])([2H])C1(C([2H])([2H])[2H])Cn2nc(-c3ccc(F)cn3)c(-c3ccnc4[nH]ncc34)c2CO1 ?
< 5.00
